The values you see were collected from ChEMBL document CHEMBL3507680.

test: Human HepG2 cell viability assay in 384 well format; assay type: toxicity, cell-based; design: dose 125 nL, time 70.5 hour; concentration not given beside the values; settings: HepG2 cells, read-out: Inhibition
metric: cytotoxicity at 70.5 h (%)
State just the number; it will be interpreted in %.

Query :: Recorded cytotoxicity at 70.5 h of CCN1CCC2(CC1)OCCN2C(=O)c1ccc(OC)c(Cl)c1 , please.
Result :: 3.75

Query :: Consider the molecule CN(Cc1ncc(C(C)(C)C)o1)C1CCCN(c2cccnn2)C1 (centres undefined) and give its measured cytotoxicity at 70.5 h.
Result :: -11.9

Query :: Looking for the measured cytotoxicity at 70.5 h of Cc1nn(C)c2c(N(C)Cc3cccs3)nc(C3CC3)nc12 , can you help?
Result :: 22.5

Query :: # lookup: cytotoxicity at 70.5 h of CCC1CCC(CNC(=O)c2c[nH]c(=O)c(Cl)c2)CC1 (centres undefined)
Result :: -9.94

Query :: // cytotoxicity at 70.5 h lookup, key: Fc1ccc(OCc2nnc([C@H]3CCN(Cc4ccccn4)C3)o2)cc1
Result :: -7.48

Query :: // cytotoxicity at 70.5 h lookup, key: CC(C(=O)Nc1ccccc1Sc1ccccc1)S(C)(=O)=O (centres undefined)
Result :: -3.46

Query :: What measured cytotoxicity at 70.5 h goes with CCCOc1cc(C)ccc1NC(=O)NCCNC(=O)C(C)C ?
Result :: 25.7

Query :: Which cytotoxicity at 70.5 h value is on record for COc1ccc(NCc2c[nH]nc2-c2cccnc2)cc1 ?
Result :: 8.67

Query :: Could you tell me which cytotoxicity at 70.5 h is on file for CCOC(=O)CC(c1ccc(OC)cc1)c1c(O)n[nH]c1C (centres undefined) ?
Result :: -13.7

Query :: I am curious: what cytotoxicity at 70.5 h value has been reported for CNC(=O)COC(=O)c1ccoc1CN1c2ccccc2CC1C (centres undefined) ?
Result :: 0.373

Query :: Record request: cytotoxicity at 70.5 h value, item NCc1n[nH]c(-c2ccc(Br)cc2)n1
Result :: 2.27

Query :: Given the molecule CN(C(=O)NCc1ccncc1)C1CCCN(c2ccccc2)C1=O (centres undefined) , what is its reported cytotoxicity at 70.5 h?
Result :: -4.3

Query :: Would you mind telling me what cytotoxicity at 70.5 h value was observed for COc1cc(CN2CCC(O)(c3ccc(C)cn3)CC2)cc(Cl)c1OC ?
Result :: 17.5

Query :: Reported cytotoxicity at 70.5 h, molecule CSCCC(C)(O)CNS(=O)(=O)Cc1cccc(C)c1 (centres undefined) : ____
Result :: -16.9

###

Can you tell me cytotoxicity at 70.5 h for the items I'm about to list?
assay: Human HepG2 cell viability assay in 384 well format; format: toxicity, cell-based; set-up: dose 125 nL, time 70.5 hour; concentration not given beside the values; conditions: HepG2 cells, read-out: Inhibition

Query :: Form field: reported cytotoxicity at 70.5 h of Cc1cc(N2C[C@H](NC(=O)C3(C#N)CCOCC3)[C@@H](C(C)C)C2)ccn1
Result :: -10.5%

Query :: What cytotoxicity at 70.5 h value was documented for this compound, CCC(C)(C)C(=O)Nc1ccc2ccn(CC(=O)NC)c2c1 ?
Result :: -0.594%

Query :: So what does the record say about cytotoxicity at 70.5 h for CN(C)C(=O)[C@H]1C[C@H]2OCC[C@H]2N(Cc2ccc3ccccc3n2)C1 ?
Result :: 17.2%

Query :: Quick one: cytotoxicity at 70.5 h of Cc1nc(NS(=O)(=O)c2ccc(C)c(Br)c2)no1 ?
Result :: -12.1%

Query :: cytotoxicity at 70.5 h for Cc1ncc(-c2ccnc(N3CCN(C)CC3)n2)c(-c2cccnc2)n1 ?
Result :: -13.1%

Query :: Query: cytotoxicity at 70.5 h; subject: CC(C)CS(=O)(=O)N1C[C@H]2C[C@H](C(=O)N(C)C)[C@@H](C1)O2
Result :: -1.1%

Query :: Param item = CCc1noc(C2CCN(C(=O)CCn3nc(C)cc3C)CC2)n1 ; retrieve measured cytotoxicity at 70.5 h.
Result :: -12.9%

Query :: Entry under review: Cc1cccc(CN2C[C@@H]3CN(C(=O)c4cnccn4)C[C@@H]3C2=O)c1 . Reported cytotoxicity at 70.5 h?
Result :: -2.3%

Query :: // returns reported cytotoxicity at 70.5 h for input CC(C)C(Sc1nnnn1-c1ccccc1)C(=O)NCc1cccnc1 (stereo not given)
Result :: -2.05%

Query :: Any idea what cytotoxicity at 70.5 h was measured for CC(=O)c1ccc(CN2C[C@@H](CN3CCC(O)CC3)[C@@H](CO)C2)cc1 ?
Result :: -2.46%

###

assay: Human HepG2 cell viability assay in 384 well format; type: toxicity, cell-based; parameters: dose 125 nL, time 70.5 hour; concentration not given beside the values; conditions: HepG2 cells, read-out: Inhibition
metric: cytotoxicity at 70.5 h (%)
Supply the numeric figure in %, leaving out any unit text.

Query :: Consider the compound shown here: CS(=O)(=O)NCc1cc(-c2cc(F)cc(F)c2)nc(N2CCCC2)n1 What is its recorded cytotoxicity at 70.5 h?
Result :: -12.8

Query :: Given the compound Cn1ccnc1CN1CC2(CCN(Cc3ccncc3)C2)C1 , what is its reported cytotoxicity at 70.5 h?
Result :: -0.993

Query :: # input compound: CC(C)N1CCCC(CNC(=O)CN(C)S(=O)(=O)c2ccccc2)C1 (configuration not stated) ; wanted: its cytotoxicity at 70.5 h
Result :: -5.65

Query :: So what does the record say about cytotoxicity at 70.5 h for Cc1ccc(CN2C[C@@H](C(=O)Nc3cccnc3)C[C@H]3OCC[C@H]32)o1 ?
Result :: 21.9

Query :: I have this compound here, O=C(c1cncc(N2CCC(O)(CO)CC2)n1)N1CCCC1 , and I need its recorded cytotoxicity at 70.5 h.
Result :: -9.52

Query :: What cytotoxicity at 70.5 h value was documented for this compound, c1ccc(COCC2CN(Cc3ccsc3)Cc3nccn3C2)nc1 (configuration not stated) ?
Result :: -7.86

Query :: Consider the compound shown here: COc1ccc(CNC(Cc2cccs2)c2nc(C)c(C)s2)cc1OC (configuration not stated) What is its recorded cytotoxicity at 70.5 h?
Result :: 2.99

Query :: Requested field: cytotoxicity at 70.5 h. Item: O=C(NCCN1CCNC1=O)c1cc(-c2ccc(O)cc2)n[nH]1
Result :: -10.9

Query :: Please look up its cytotoxicity at 70.5 h: c1cnc(N2CCC(c3nccn3CC3CC3)CC2)nc1
Result :: -2.28

Query :: What value of cytotoxicity at 70.5 h has been reported for the following compound? Cc1nn(C)c(C)c1CCC(=O)N1CCc2sccc2C1
Result :: 23.2

Query :: Need cytotoxicity at 70.5 h, item Cc1c[nH]nc1C1CCN(S(=O)(=O)N(C)C)C1 (configuration not stated)
Result :: -8.85

Query :: What does the record list as cytotoxicity at 70.5 h for CNC(=O)CC1CC2(CCN(CC3CC3)CC2)Oc2ccccc21 (configuration not stated) ?
Result :: -6.72

Query :: Any idea what its cytotoxicity at 70.5 h is? The compound is CCN(CC)c1ccc2ccc(C(=O)N(C)C)cn12
Result :: 8.29

Query :: Looking for the measured cytotoxicity at 70.5 h of Cn1cccc1C(=O)NC[C@H]1C[C@@H]2CN(C(=O)c3ccco3)C[C@@H]2O1 , can you help?
Result :: -1.72

Query :: What value of cytotoxicity at 70.5 h has been reported for the following compound? COc1nccnc1N1CCN(Cc2cccc(F)c2)C(=O)C1
Result :: 16.1

Query :: Request the reported cytotoxicity at 70.5 h associated with O=C(O)c1cccnc1N1CCN(Cc2ccc(F)cc2)C(CCO)C1 (configuration not stated)
Result :: 22.4

Query :: Which cytotoxicity at 70.5 h reading was recorded for the compound CCC(C)N(Cc1cccnc1)C(=O)c1ccc(OC)cc1O (configuration not stated) ?
Result :: -9.19

Query :: For the compound shown here, CCN1CCC(NC(=O)CN2CCCCC2Cn2cccn2)CC1 (configuration not stated) , give the reported cytotoxicity at 70.5 h.
Result :: -4.33

Query :: Form field: reported cytotoxicity at 70.5 h of Cc1ccc(C(=O)NCc2cccnc2N(C)C)o1
Result :: -12.1

Query :: Look up cytotoxicity at 70.5 h: CCN1CCOC(CNCc2ccc(OC)c(F)c2)C1 (configuration not stated)
Result :: -6.46

Query :: Given the compound CCn1nc(C)c(CNC(=O)c2nnc3ccccc3n2)c1C , what is its reported cytotoxicity at 70.5 h?
Result :: 0.73

Query :: For the compound CC1CCN(CC(=O)NC2CCN(C(C)c3ccccc3)CC2)CC1 (configuration not stated) , what cytotoxicity at 70.5 h is on record?
Result :: -12.3

Query :: Which measured cytotoxicity at 70.5 h value corresponds to COCCN1CCCn2cnc(CNC(=O)N(C)C)c2C1 ?
Result :: -3.75

Query :: Looking for the measured cytotoxicity at 70.5 h of Cn1nccc1C(=O)N1CCOC(Cc2ccc(Cl)cc2)C1 (configuration not stated) , can you help?
Result :: 0.563

Query :: Recorded cytotoxicity at 70.5 h for CCCc1ccc(C(C)Nc2ncnc3c2CCNC3)cc1 (configuration not stated) , please?
Result :: -2.09

Query :: Form field: reported cytotoxicity at 70.5 h of CN1N=C(C(=O)N2CCCCC2)S(=O)(=O)c2ccccc21
Result :: 1.74

Query :: Recorded cytotoxicity at 70.5 h of COc1ccc(F)cc1C(=O)N1CCC2(CCC(=O)N(C(C)C)C2)CC1 , please.
Result :: -5.66

Query :: Report cytotoxicity at 70.5 h for COCCC(=O)NC1CCN(CC2(c3cccc(F)c3)CCCC2)CC1 please.
Result :: 0.0702

Query :: Which value of cytotoxicity at 70.5 h has been reported for Cc1cccc(CO[C@@H]2CC[C@H]3[C@H]2OCCN3Cc2nccs2)n1 in the records?
Result :: -0.937

Query :: Param item = CN(C)c1cc(CNc2ccc(S(=O)(=O)C(C)(C)C)nc2)ccn1 ; retrieve measured cytotoxicity at 70.5 h.
Result :: 8.83

Query :: Fill in: cytotoxicity at 70.5 h of CCC(CN1CCCC1)NC(=O)Cc1c(C)[nH]c2c(C)cc(C)cc12 (configuration not stated) is ___
Result :: 12.8

Query :: cytotoxicity at 70.5 h for O=c1c2cccc(C(F)(F)F)c2ncn1C1CCNC1 (configuration not stated) ?
Result :: -13.6

Query :: Need cytotoxicity at 70.5 h, item O=C(c1cc(F)ccc1O)N1CCN(C2CCOCC2)CC1
Result :: 0.856

Query :: // returns reported cytotoxicity at 70.5 h for input Cc1occc1CNC(=O)C1CCCN1C(=O)C1CC1 (configuration not stated)
Result :: -6.76

Query :: Quick check: cytotoxicity at 70.5 h of CC(=O)NC1CCN(c2c(C#N)cnc3c(C)cc(F)cc23)CC1 ?
Result :: 0.242

Query :: Recorded cytotoxicity at 70.5 h for Cc1cc(C(=O)N2CCCCC2c2nc3cc(F)ccc3[nH]2)no1 (configuration not stated) , please?
Result :: 27.9

Query :: Request the reported cytotoxicity at 70.5 h associated with COC(=O)CCC(=O)NC(C)Cc1ccccc1Br (configuration not stated)
Result :: -4.19

Query :: Item Cc1cc(NC(=O)CN2CCc3cnc(C(C)C)nc3C2)on1 has what recorded cytotoxicity at 70.5 h?
Result :: -1.61

Query :: Report cytotoxicity at 70.5 h for C[C@@H]1CN(C(=O)NC2CC2)C[C@]12CCN(c1ccsc1)C2=O please.
Result :: -3.3

Query :: Fill blank: measured cytotoxicity at 70.5 h of the compound CCc1cc(NCc2ccc(-n3cncn3)c(C)c2)n(C)n1 is ____.
Result :: 2.61

Query :: Would you kindly share the measured cytotoxicity at 70.5 h for CCCn1cnnc1CN(C)C(=O)C1CCC(=O)N(C2CCCC2)C1 (configuration not stated) ?
Result :: -3.21

Query :: Entry under review: CCCC(O)CN1CCC(=O)N(C)Cc2cc(F)ccc21 (configuration not stated) . Reported cytotoxicity at 70.5 h?
Result :: 18.5
